# TARGET DESC: T1, human TIGIT-His antigen (human, UniProt Q495A1 22-141)
# T1 construct: not shown: His tag
# T1 chain: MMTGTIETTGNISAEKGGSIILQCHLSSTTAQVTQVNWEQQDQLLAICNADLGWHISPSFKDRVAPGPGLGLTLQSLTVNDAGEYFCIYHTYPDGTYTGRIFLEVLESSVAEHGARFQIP
# METHOD DESCRIPTION: Octet (BLI), human TIGIT-HIS on penta-His sensor, antibody in solution
pKd: −log10 of the molar value.
OBSERVED PROPERTY: pKd

>  <BINDER>
1E8 (IgG-type anti-TIGIT antibody) (antibody, V domains shown, section 4.2 is headed 'Conversion to IgG4-Type Anti-TIGIT Antibodies') VH: QVQLVQSGTEVKKPGASVKVSCKASGYTFSSYAITWVRQAPGQGLEWMGWISAYNGNTNYAQKLQGRVTMTTDTSTSTAYMELRSLRSDDTAVYYCARVDFWSGYNYFDYWGQGTLVTVSS VL: DIQMTQSPSSLSASVGDRVTITCRASQGISNYLAWYQQKPGKVPKVLIYAASTLQSGVPSRFSGSGSGTDFTLTISSLQPEDVATYYCQKSNSAPLTFGGGTKVEIKR

>  <MEASURED RESULT>
9.03

$$$$
>  <BINDER>
1F10 (IgG-type anti-TIGIT antibody) (antibody, V domains shown, section 4.2 is headed 'Conversion to IgG4-Type Anti-TIGIT Antibodies') VH: EVQLVESGGGLVKPGGSLRISCAASGFTFSNYNMIWVRQAPGKGLEWVSSISSSASYIYYADSVKGRFTISRDNAKNSLYLQMNSLRAEDTAVYYCARDEGSRDSWNNGPYYYSGMDVWGQGTTVTVSS VL: AIQMTQSPSSLSASVGDRVTITCRASQSISRYLNWYQHKPGKAPKLLIYGASSLQSGVPSRFRGSGSGTDFTLTISSLQPEDFATYYCQQSYTTPGAFTFGGGTKVEIKR

>  <MEASURED RESULT>
8.88

$$$$
>  <BINDER>
WIN_1D2 (IgG-type anti-TIGIT antibody) (antibody, V domains shown, section 4.2 is headed 'Conversion to IgG4-Type Anti-TIGIT Antibodies') VH: QVQLVQSGAEVKKPGASVKVSCKASGYTFTSYGISWVRQAPGQGLEWMGWISAYNGNTNYAQKLQGRVTMTTDTSTSTAYMELRSLRSDDTAVYYCARAGWEQQLGFDYWGQGTLVTVSS VL: AIQLTQSPSSLSASVGDRVTITCRASQSISSYLNWYQQKPGKAPKLLIYAASSLQSGVPSRFSGSGSGTDFTLTISSLQPEDFATYYCQQSYSTLAITFGQGTRLEIKR

>  <MEASURED RESULT>
9.24

$$$$
>  <BINDER>
WIN_1B6 (IgG-type anti-TIGIT antibody) (antibody, V domains shown, section 4.2 is headed 'Conversion to IgG4-Type Anti-TIGIT Antibodies') VH: QVQLVQSGAEVKKPGASVKVSCKASGYTFTSYGISWVRQAPGQGLEWMGWISAYNGNTNYAQKLQGRVTMTTDTSTSTAYMELRSLRSDDTAVYYCARAGWEQQLGFDYWGQGTLVTVSS VL: AIQLTQSPSSLSASVGDRVTISCRASQTIRSYLNWYQQKPGKAPKLLIYAASSLQSGVPLRFSGSGSGTDFTLTISSLQPEDFATYYCQQSYSTLPLTFGGGTKVEIKR

>  <MEASURED RESULT>
9.35

$$$$
